B1: LINE1-mini (parent)
chain: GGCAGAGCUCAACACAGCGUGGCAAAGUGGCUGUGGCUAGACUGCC

Variants of: B1
Assay: self-cleavage, relative activity (ratio to wild type); higher = more cleavage; in vitro, sequencing; the parent is a self-cleaving ribozyme
Lab note: compare self-cleavage against 0.1. Equal or greater, write MET. Smaller, write NOT MET.

A16C A24U
MET
A4G C10U
MET
U9C G30U
NOT MET
G5A G44C
NOT MET
G21A C23G
MET

Query variant follows.
Lookup: For this variant, is measured self-cleavage 0.1 or higher? C13U G33C
Found: NOT MET
